test description: Tmax in cynomolgus monkey
Type: ADME, organism-based, Macaca fascicularis
condition description: in vivo
measurement type: Tmax

structure: N#C[C@@H]1CC[C@H](C#N)N1C(=O)CNC1(CO)CCCC1
result: ≤ 1 h

====

test description: Volume of distribution in cynomolgus monkey
Assay type: ADME, organism-based, Macaca fascicularis
condition description: in vivo, read-out: Vdss

structure: N#C[C@@H]1CC[C@H](C#N)N1C(=O)CNC1(CO)CCCC1
measurement units: L/kg
Vd: 1.7

====

test description: Percent of unbound ligand in Sprague-Dawley rat plasma
Assay type: ADME, cell-free

structure: N#C[C@@H]1CC[C@H](C#N)N1C(=O)CNC1(CO)CCCC1
fraction unbound: 1

====

tested system: Dipeptidyl peptidase 4 (Mus musculus)
test description: Lowering of glucose level in diabetic KK/H1J mouse at 10 mg/kg, po
Type: functional, organism-based
Design: dose 10 mg/kg
The entries below come with measured Activity values attached.

structure: N#C[C@@H]1CC[C@H](C#N)N1C(=O)CNC1(CO)CCCC1
tested system: Dipeptidyl peptidase 4 (Mus musculus)
measurement units: %
Activity: 67

structure: N[C@H](C(=O)N1CC(F)(F)C(F)(F)C1)C1CCCCC1
tested system: Dipeptidyl peptidase 4 (Mus musculus)
measurement units: %
Activity: 57

structure: COCC1(NCC(=O)N2[C@H](C#N)CC[C@@H]2C#N)CCCC1
tested system: Dipeptidyl peptidase 4 (Mus musculus)
measurement units: %
Activity: 74

structure: CCOCC1(NCC(=O)N2[C@H](C#N)CC[C@@H]2C#N)CCCC1
tested system: Dipeptidyl peptidase 4 (Mus musculus)
measurement units: %
Activity: 79

structure: CCCCOCC1(NCC(=O)N2[C@H](C#N)CC[C@@H]2C#N)CCCC1
tested system: Dipeptidyl peptidase 4 (Mus musculus)
measurement units: %
Activity: 16

Measured values drawn from ChEMBL document CHEMBL1147795 for this set.
